In this section we review reported Enhancement values for a set of compounds.
- Species on record: Bos taurus
- Protocol Notes: Percent enhancement of [3H]NPE binding to bovine striatal membranes at 100 nM concentration
- Format: functional
- Condition Context: Striatum, Membrane

In plain terms, NC(=O)CN1CC[C@@](Cc2ccccc2)(NC(=O)[C@@H]2CCCN2)C1=O has a documented Enhancement of 116%

In plain terms, CC(C)C[C@@]1(NC(=O)[C@@H]2CCCN2)CCN(CC(N)=O)C1=O has a documented Enhancement of 59%

In plain terms, NC(=O)CN1CC[C@@H](NC(=O)[C@@H]2CCCN2)C1=O has a documented Enhancement of 36%

In plain terms, CCCC[C@@]1(NC(=O)[C@@H]2CCCN2)CCN(CC(N)=O)C1=O has a documented Enhancement of 89%
